Test system: HepG2
Protocol Summary: cell viability relative to DMSO; higher = less toxic
Condition Details: 72 h; 1000 nM
Metric Name: cell viability (%)
Express it in %; write the number only.

* CN1Cc2ccccc2[C@@H]2c3cccc4[nH]cc(c34)C[C@H]21 | 99.5
* CNS(=O)(=O)CCc1ccc2[nH]cc(C3CCN(C)CC3)c2c1 | 103
* O=C(Nc1cccnc1)N1CCC(Cc2cccc(Oc3ccc(C(F)(F)F)cn3)c2)CC1 | 101

Pending molecule:
Name the recorded cell viability for Brc1ccc(NC2C3CC4CC(C3)CC2C4)cc1 (stereo not drawn) .
106

----------
System: U2OS
Protocol Summary: cell viability relative to DMSO; higher = less toxic
Condition Details: 72 h; 1 nM
The entries below are paired with their reported cell viability.
Express it in %; write the number only.

Consider the worked cases shown below.
• CC1=C(C(=O)O)N2C(=O)[C@@H](NC(=O)[C@H](N)c3ccccc3)[C@H]2SC1 = 99.2
• C(#CCN1CCCC1)CN1CCCC1 = 94.9
• O=C(Oc1ccccc1C(=O)O)c1ccccc1O = 100
• CCN(CC)C(C)C(=O)c1ccccc1 (configuration not stated) = 100
• CCOc1ccc(S(=O)(=O)O)c2cccnc12 = 96.3
• CN(C)C/C=C/C(=O)Nc1ccc(C(=O)Nc2cccc(Nc3ncc(Cl)c(-c4c[nH]c5ccccc45)n3)c2)cc1 = 97
• Fc1cc(-c2cccc3ncc(-c4cnn(C5CCNCC5)c4)nc23)cc(F)c1CN1CCOCC1 = 101
• C[C@H]1CNCCCN1S(=O)(=O)c1cccc2cncc(F)c12 = 98.4
• CC(C)NCC(O)COc1cccc2[nH]c3ccccc3c12 (configuration not stated) = 103
• CNCc1cc(-c2ccccc2F)n(S(=O)(=O)c2cccnc2)c1 = 95.4

Name the recorded cell viability for COc1ccc(C(=O)NCc2cccnc2)cc1C(=O)NCc1cccnc1 [picotamide] .
97.9
